- measured-on: Nonstructural protein 3 (Zika virus)
- Sequence (A0A024AXB9 whole entry): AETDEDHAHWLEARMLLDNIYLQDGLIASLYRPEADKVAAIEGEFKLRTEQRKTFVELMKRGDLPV
- method-notes: Functional biochemical assay to identify treatments for viral infectious disease that targets Zika NS2B-NS3 protease. Utilizing a direct enzyme activity measurement method, reading the fluorescence intensity is used to characterize the relative potency of inhibitors as IC50.
- Set-up: species or system PRVABC59
Measured pIC50, listed per entry for reference.
Convention used: pIC50 is expressed as -log10 of the molar concentration.

Solved entries (count: 3):
>>> endpoint_value("O=C(NCCCn1ccnc1)[C@H](Nc1ccc2c(c1)CNC2)c1cc(Cl)cc(C2CC2)c1")
6.91
>>> endpoint_value("O[C@@H]1CN(Cc2c[nH]c3ccccc23)CC[C@@H]1c1ccccc1")
4.32
>>> endpoint_value("NCc1cccc(N2CCN(C(=O)OCc3ccccc3)[C@H](c3ccc(OCc4ccccc4)cc3)C2=O)c1")
4.68

Switching to the query record.
[ask] Give the measured pIC50 for Cn1nc(CCN)nc1NC(=O)c1cc(Cl)cc(NC(=O)OCc2ccccc2)c1
[reply] 4.50

---

Measured pIC50, listed per entry for reference.
- measured-on: Nonstructural protein 3 (Zika virus)
- method-notes: Functional biochemical assay to identify treatments for viral infectious disease that targets Zika NS2B-NS3 protease. Utilizing a direct enzyme activity measurement method, reading the fluorescence intensity is used to characterize the relative potency of inhibitors as IC50.
- Set-up: species or system PRVABC59
pIC50: −log10 of the molar value.

Solved entries (count: 3):
>>> endpoint_value("Cc1c(C(=O)Nc2ccc3c(c2)CNCCO3)cc(C2CC2)n1C")
"< 4.00"
>>> endpoint_value("O=C(N[C@@H](C(=O)NCC1CCNCC1)c1ccc(OCc2ccccc2)cc1)OCc1ccccc1")
"< 4.00"
>>> endpoint_value("O=C(O)c1ccc(Cc2c[nH]c3ccc(Cl)cc23)cc1")
"< 4.00"

[ask] Give the measured pIC50 for Cc1cc(C(=O)Nc2cccc(CN)c2)c(NC(=O)[C@H]2CCCO2)s1
[reply] 5.23

[ask] Give the measured pIC50 for O=C(Nc1ccc2c(c1)CNC2)c1cc(F)c2[nH]c(=O)[nH]c2c1
[reply] 6.37

[ask] Give the measured pIC50 for CC[C@H](C(=O)Nc1cccc(CN)c1)n1cc(Br)c(C(F)(F)F)n1
[reply] < 4.00

[ask] Give the measured pIC50 for CS(=O)(=O)c1ccc(-c2ccc(S(=O)(=O)Nc3ccc(Cl)cc3C(=O)O)cc2)cc1
[reply] 4.11

[ask] Give the measured pIC50 for CCn1c(=O)c(N2CCC[C@@H]2Cn2cncn2)nc2ccccc21
[reply] < 4.00

[ask] Give the measured pIC50 for N#C[C@H](Nc1ccc(-c2nn[nH]n2)cc1)c1cc(Cl)cc(NC(=O)OCc2ccccc2)c1
[reply] 4.72

[ask] Give the measured pIC50 for Cc1nnc(CSc2ncnc3sccc23)o1
[reply] < 4.00

[ask] Give the measured pIC50 for Cc1nc(COc2ccc([C@@H](NC(=O)OCc3ccccc3)C(=O)Nc3cccc(CN)c3)cc2)cs1
[reply] < 4.00

[ask] Give the measured pIC50 for O=C(Nc1cc(Cl)cc(N[C@H](C#CCO)c2ccc(-c3nn[nH]n3)cc2)c1)OCc1ccccc1
[reply] 4.28

[ask] Give the measured pIC50 for O=C1Cc2ccc(NC(=O)c3cc(F)cc4[nH]ncc34)cc2N1
[reply] < 4.60

[ask] Give the measured pIC50 for Cc1cc(C(=O)O)c(NS(=O)(=O)c2ccc(Oc3ccccc3)cc2)cc1F
[reply] 4.16

[ask] Give the measured pIC50 for CCc1nc(C)c(C(=O)Nc2cccc(-c3nnn[nH]3)c2)s1
[reply] < 4.00

[ask] Give the measured pIC50 for O=C(Nc1ccc2c(c1)CNC2)c1ncc(Cc2ccccc2)s1
[reply] < 4.60

[ask] Give the measured pIC50 for Cc1c(C(=O)Nc2cccc([C@@H](C)N)c2)cc(C2CC2)n1C
[reply] < 4.00

[ask] Give the measured pIC50 for CS(=O)(=O)NC(=O)c1cc(Cl)ccc1NS(=O)(=O)c1ccc(Oc2ccccc2Cl)cc1
[reply] 4.44

[ask] Give the measured pIC50 for Cc1oc2nc(-c3cc(Cl)cc(NC(=O)OCc4ccccc4)c3)ccc2c1C(=O)O
[reply] < 4.00

[ask] Give the measured pIC50 for CCc1cc(C(=O)Nc2ccc3c(c2)CNC3)sc1-c1ccc(Cl)cc1
[reply] < 4.00

[ask] Give the measured pIC50 for CNC(=O)[C@H](Nc1cccc(-c2nnn[nH]2)c1)c1cc(Cl)cc(C2CC2)c1
[reply] < 4.00
